Molecular target: T1, human integrin β1 (human, UniProt P05556 21-798)
T1 construct: whole, on cells; the antibodies are described as anti-human integrin β1; also called CD29; ITGB1
Experiment: competition FACS on Jurkat cells; competitor murine OS2966 (0.1875 µg/ml)
reported_endpoint: relative IC50 (IC50 of test antibody / IC50 of chimeric antibody)

Illustrative cases are given below, each with its answer.
binder: composite human antibody variant H10 (antibody, V domains shown, also called VH3VK4) VH: EVQLVQSGAEVKKPGSSVKISCKASGYTFTGYILSWVRQAPGQGLEWIGWVDPEYGSTDSAEKFKKRATLTADISTSTAYIELSSLRSEDTATYFCTRYYDGYYRRWFAYWGQGTLVTVSS VL: DIQMTQSPSSLSASVGDRVTITCLASEGISNNLAWYQQKPGKAPKLLIYGAHSLHDGVPDRFSGSGSGTDFTLKISRVEAEDVGVYYCQQGYKYPITFGGGTKVEIK
result: 2.76 ratio to chimeric antibody
--
binder: composite human antibody variant H2 (antibody, V domains shown, also called VH3VK1) VH: EVQLVQSGAEVKKPGSSVKISCKASGYTFTGYILSWVRQAPGQGLEWIGWVDPEYGSTDSAEKFKKRATLTADISTSTAYIELSSLRSEDTATYFCTRYYDGYYRRWFAYWGQGTLVTVSS VL: DIQMTQSPSSLSASVGDRVTITCLASEGISNNLAWHQQKPGKAPQLLIYGAHSLHDGVPDRFSGSGSGTDYTLKISGMQPEDEGVYYCQQGYKYPITFGGGTKVEIK
result: 0.97 ratio to chimeric antibody
--
binder: composite human antibody variant H6 (antibody, V domains shown, also called VH5VK1) VH: EVQLVQSGAEVKKPGSSVKVSCKASGYTFTGYILSWVRQAPGQGLEWIGWVDPEYGSTDSAEKFKKRVTITADISTSTAYMELSSLRSEDTATYFCTRYYDGYYRRWFAYWGQGTLVTVSS VL: DIQMTQSPSSLSASVGDRVTITCLASEGISNNLAWHQQKPGKAPQLLIYGAHSLHDGVPDRFSGSGSGTDYTLKISGMQPEDEGVYYCQQGYKYPITFGGGTKVEIK
result: 1.24 ratio to chimeric antibody

Here is another binder to look at.
// sample composite human antibody variant H11 (antibody, V domains shown, also called VH3VK3) VH: EVQLVQSGAEVKKPGSSVKISCKASGYTFTGYILSWVRQAPGQGLEWIGWVDPEYGSTDSAEKFKKRATLTADISTSTAYIELSSLRSEDTATYFCTRYYDGYYRRWFAYWGQGTLVTVSS VL: DIQMTQSPSSLSASVGDRVTITCLASEGISNNLAWYQQKPGKAPKLLIYGAHSLHDGVPDRFSGSGSGTDYTLKISRVEAEDVGVYYCQQGYKYPITFGGGTKVEIK , its relative IC50 (IC50 of test antibody / IC50 of chimeric antibody) was 1.58 ratio to chimeric antibody
